Source: patent US8536157B2

measurement.label: melting point

Record excerpt, results attached:
compound: COc1ccc(/C(C)=N/OCc2ccc([N+](=O)[O-])cc2)cc1F
result: 67 to 68 °C

compound: C/C(=N\OCc1ccc([N+](=O)[O-])cc1)c1ccccc1 [CP30252, (E)-Acetophenone O-4-Nitrobenzyl Oxime]
result: 91.3 to 92.3 °C

compound: COc1ccc(/C(C)=N/OCc2cc(F)cc(F)c2)cc1O
result: 47.7 to 50.2 °C

compound: COc1ccc(/C(C)=N/OCc2ccc(F)c(F)c2)cc1F
result: 62 to 63 °C

compound: COc1cc(/C(C)=N/OCc2ccc3nonc3c2)ccc1F
result: 65 °C

Batch request: melting point per item, same order as input.
1. COc1ccc(/C(C)=N/OCc2ccc(C#N)cc2)cc1O
2. COc1cc(Br)c(/C(C)=N/OCc2ccc([N+](=O)[O-])cc2)cc1O
3. COc1cc(-c2ccc(C(F)(F)F)cc2)c(/C(C)=N/OCc2ccc([N+](=O)[O-])cc2)cc1O
4. COc1cc(-c2ccc(C)cc2)c(/C(C)=N/OCc2ccc([N+](=O)[O-])cc2)cc1O
5. COc1ccc(/C(C)=N/OCc2ccc([N+](=O)[O-])cc2)cc1OC

Result block:
1. 125.9 to 129.7 °C
2. 136.8 to 138.4 °C
3. 111.5 to 114.1 °C
4. 105.9 to 108.7 °C
5. 118.4 to 121 °C
